# ASSAY COMMENT: PK in rats
# Format: in vivo
# CONDITION DETAILS: male, Wistar Hannover, plasma; rat, IV 1.0 mg/kg; read-out: Vdss
PROPERTY NAME: Vd (L/kg)
# unit: L/kg | format: bare number

State its Vd: C#C[C@]1(CO)O[C@@H](n2ccc3c(N)nc(Cl)nc32)C[C@@H]1O [Compound 12]
2
